Where these numbers come from: patent US10251952B2

target-or-system: human tau(pS422) (Homo sapiens, UniProt P10636, S739X)
test-method-notes: BIAcore kinetic screening and kinetic rates of humanized VH/VL combinations
Assay type: binding
measurement-context: 25 °C; VL17 or VL19 with VH variants
quantity: t/2 diss (min)
Please reply with the bare figure in min and do not write the unit itself.

# annotated cases, reported t/2 diss shown
| molecule | val |
| --- | --- |
| VL17 with VH22: anti-human tau(pS422) antibody; VH SEQ ID NO: 54, VL SEQ ID NO: 37 (antibody, V domains shown, humanized sequence) VH: EVQLLESGGGLVQPGGSLRLSCAASGFSLSSNAINWVRQAPGKGLEWVGYIAVSGNTYYADSVKGRFTISRDNSKNTLYLQMNSLRAEDTAVYYCGKSNIWGQGTLVTVSS VL: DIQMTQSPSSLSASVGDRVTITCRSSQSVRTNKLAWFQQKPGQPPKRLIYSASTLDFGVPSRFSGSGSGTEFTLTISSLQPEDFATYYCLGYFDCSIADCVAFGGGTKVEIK | 6 |
| VL17 with VH01: anti-human tau(pS422) antibody; VH SEQ ID NO: 46, VL SEQ ID NO: 37 (antibody, V domains shown, humanized sequence) VH: QQLVESGGGLVQPGGSLRLSCAASGFSLSSNAINWVRQAPGKGLEWVGYIAVSGNTYYASWAKGRFTISRDNSKNTLYLQMNSLRAEDTAVYYCGKSNIWGQGTLVTVSS VL: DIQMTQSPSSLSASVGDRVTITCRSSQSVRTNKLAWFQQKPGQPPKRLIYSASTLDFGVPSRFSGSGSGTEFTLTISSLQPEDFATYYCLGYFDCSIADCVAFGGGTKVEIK | 5 |
| VL17 with VH18: anti-human tau(pS422) antibody; VH SEQ ID NO: 52, VL SEQ ID NO: 37 (antibody, V domains shown, humanized sequence) VH: QQLVESGGGLVQPGGSLRLSCAASGFSLSSNAINWVRQAPGKGLEWVGYIAVSGNTYYADSVKGRFTISRDNSKNTLYLQMNSLRAEDTAVYYCGKSNIWGQGTLVTVSS VL: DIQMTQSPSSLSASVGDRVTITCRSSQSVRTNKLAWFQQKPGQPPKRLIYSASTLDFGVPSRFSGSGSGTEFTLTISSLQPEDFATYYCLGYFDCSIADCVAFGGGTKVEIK | 5 |

Now, please, on to the next molecule.
Sample VL17 with VH23: anti-human tau(pS422) antibody; VH SEQ ID NO: 55, VL SEQ ID NO: 37 (antibody, V domains shown, humanized sequence) VH: EVQVLESGGGLVQPGGSLRLSCAVSGFSLSSNAINWVRQAPGKGLEWVGYIAVSGNTYYADSVKGRFTISKDNSKNTVYLQMNSLRAEDTAVYYCGKSNIWGQGTLVTVSS VL: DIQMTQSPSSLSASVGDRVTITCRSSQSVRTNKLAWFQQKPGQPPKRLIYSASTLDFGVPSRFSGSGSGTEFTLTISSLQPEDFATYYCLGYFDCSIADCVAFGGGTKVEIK — what was its t/2 diss? 17
